These measurements were taken from patent US8952024B2.

test system: giant foxtail (Setaria faberii); test: Test B pre-/postemergence plant response; assay type: in vivo; conditions: Postemergence, 125 g ai/ha; scale 0 to 100 (0 no effect, 100 complete control)
MEASURED ENDPOINT: Plant response rating, Foxtail, Giant

{"columns": ["COMPOUND", "MEASURED ENDPOINT", "OBSERVED RESULT"],
 "data": [
  ["O=C1CCCC(O)=C1C(=O)c1cnc(-c2cc(F)cc(F)c2)n(C2CCCCC2)c1=O [Compound 181]", "Plant response rating, Foxtail, Giant", 100],
  ["CCCCn1c(-c2cc(F)cc(F)c2)ncc(C(=O)C2=C(O)CCCC2=O)c1=O [Compound 121]", "Plant response rating, Foxtail, Giant", 98],
  ["CCCn1c(-c2cc(C)cc(C)c2)ncc(C(=O)C2=C(O)CCCC2=O)c1=O [Compound 156]", "Plant response rating, Foxtail, Giant", 85],
  ["COCCn1c(-c2cccc(C)c2)ncc(C(=O)C2=C(O)C3CCC(C3)C2=O)c1=O (stereo not drawn) [Compound 233]", "Plant response rating, Foxtail, Giant", 98],
  ["Cc1cc(-n2c(-c3cccc(F)c3)ncc(C(=O)C3=C(O)CCCC3=O)c2=O)ccc1F [Compound 191]", "Plant response rating, Foxtail, Giant", 100],
  ["COCCn1c(-c2cccc(Cl)c2)ncc(C(=O)C2=C(O)CCCC2=O)c1=O [Compound 147]", "Plant response rating, Foxtail, Giant", 85],
  ["COCCn1c(-c2cccc(F)c2)ncc(C(=O)C2=C(O)C3CCC(C3)C2=O)c1=O (stereo not drawn) [Compound 235]", "Plant response rating, Foxtail, Giant", 100],
  ["COc1ccc(-n2c(-c3ccccc3)ncc(C(=O)C3=C(O)CCCC3=O)c2=O)cc1OC [Compound 218]", "Plant response rating, Foxtail, Giant", 65],
  ["Cc1ccc(Cl)cc1-n1c(-c2cccc(F)c2)ncc(C(=O)C2=C(O)CCCC2=O)c1=O [Compound 184]", "Plant response rating, Foxtail, Giant", 100]
]}
